Overview of recorded pIC50 for various molecules
Target: UniProt:P46663
Sequence (P46663 whole entry): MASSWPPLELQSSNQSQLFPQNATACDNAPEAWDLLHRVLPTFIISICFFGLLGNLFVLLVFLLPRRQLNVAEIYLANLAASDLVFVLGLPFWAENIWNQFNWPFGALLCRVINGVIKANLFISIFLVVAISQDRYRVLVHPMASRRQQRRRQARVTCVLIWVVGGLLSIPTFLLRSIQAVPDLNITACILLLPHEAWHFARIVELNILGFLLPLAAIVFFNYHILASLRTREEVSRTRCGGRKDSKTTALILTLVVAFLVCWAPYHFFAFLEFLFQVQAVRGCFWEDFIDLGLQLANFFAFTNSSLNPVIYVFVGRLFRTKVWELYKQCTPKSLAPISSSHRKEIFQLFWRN
Assay: Antagonist activity at human bradykinin B1 receptor assessed as inhibition of Lys-desArg9-BK-induced calcium flux
Note on units: pIC50 is unitless, being -log10 of a concentration expressed in mol/L.

Enquiry: Item `C=C(CNC1CCC1)c1ccc2c(c1)CCC[C@H]2NC(=O)C[C@@H](NS(=O)(=O)c1cccc(C(F)(F)F)c1)c1ccccc1` : provide pIC50
Return: 7.36

Enquiry: Item `C=C(CN1CCCC1)c1ccc2c(c1)CCC[C@H]2NC(=O)C[C@@H](NS(=O)(=O)c1cccc(C(F)(F)F)c1)c1ccccc1` : provide pIC50
Return: 8.01

Enquiry: Item `C=C(CNCC1CC1)c1ccc2c(c1)CCC[C@H]2NC(=O)C[C@@H](NS(=O)(=O)c1cccc(C(F)(F)F)c1)c1ccccc1` : provide pIC50
Return: 6.98

Enquiry: Item `C=C(CN1CCCC1)c1ccc2c(c1)CCC[C@H]2NC(=O)C[C@@H](NS(=O)(=O)c1cccc(C(F)(F)F)c1)c1ccc(F)cc1` : provide pIC50
Return: 8.89

Enquiry: Item `C=C(CNCCO)c1ccc2c(c1)CCC[C@H]2NC(=O)C[C@@H](NS(=O)(=O)c1cccc(C(F)(F)F)c1)c1ccccc1` : provide pIC50
Return: 7.49

Provenance of the data: ChEMBL document CHEMBL1208694
